Item-by-item account of pIC50
# Procedure summary: NFkB reporter suppression in cystic fibrosis bronchial cells – cell-based, uHTS hits, panel, cytotoxicity readout, dose response (AID 624344)
# Measurement parameters: CF bronchial epithelial cells, PAF-induced NFkB reporter inhibition; with PAF, mean of runs
pIC50: −log10 of the molar value.
Assay endpoint: pIC50

{"columns": ["Compound", "Assay endpoint", "Value measured"],
 "data": [
  ["Cc1ccc2occ(/C=N/NC(=O)c3ccccc3Br)c(=O)c2c1", "pIC50", 5.30],
  ["COc1cccc(-c2ccc3ncnc(NCc4cccs4)c3c2)c1", "pIC50", 5.54],
  ["Cc1ccc(S(=O)(=O)Nc2cccc3cccnc23)c([N+](=O)[O-])c1", "pIC50", 5.55],
  ["Oc1ccc(CCNc2ncnc3ccc(Cl)cc23)cc1", "pIC50", 6.08],
  ["COc1cc2c(c(OC)c1OC)-c1ccc(NCc3ccccc3)c(=O)cc1C(NC(C)=O)CC2 (stereo not drawn)", "pIC50", 4.81],
  ["COc1ccc(-c2cc(NC=O)c3ncc(-c4ccc(OC)c(OC)c4)n3c2)c(OC)c1", "pIC50", 4.93],
  ["Nc1cc2c(cc1Br)-c1ccccc1C2=NO", "pIC50", 4.92],
  ["Brc1ccc2ncnc(NCc3ccco3)c2c1", "pIC50", 5.25]
]}

====

# Procedure summary: NFkB reporter suppression in cystic fibrosis bronchial cells – cell-based, uHTS hits, panel, cytotoxicity readout, dose response (AID 624344)
# Measurement parameters: CF bronchial epithelial cells, PAF-induced NFkB reporter inhibition; with PAF, mean of runs
pIC50: −log10 of the molar value.

{"columns": ["Compound", "pIC50"],
 "data": [
  ["O=[N+]([O-])c1cccc(NC(=S)Nc2nc(-c3ccccc3Cl)cs2)c1", 5.18],
  ["Nc1ncnc2c1c(-c1ccc(Oc3ccccc3)cc1)cn2C1CCCC1", 5.18],
  ["c1cncc(CNc2ncnc3ccc(-c4ccoc4)cc23)c1", 5.86],
  ["O=C(CCl)N(Cc1cc(=O)[nH]c2ccccc12)c1ccccc1", 5.83],
  ["COc1cccc(-c2ccc3ncnc(NCc4cccc(C)c4)c3c2)c1", 5.25],
  ["CCCc1cc(-c2[nH]ncc2-c2ccc3c(c2)OCCCO3)c(O)cc1O", 5.06],
  ["O=C(Nc1cccc(-c2cnc3ccccc3n2)c1)c1cccc(NC(=O)c2ccco2)c1", 5.43],
  ["COc1ccc(CNC(=O)C(c2ccc(O)cc2)N(Cc2ccco2)C(=O)c2snc(C(N)=O)c2N)cc1 (configuration not stated)", 5.34],
  ["C=C1C(=O)[C@]23C[C@H]1CCC2[C@@]1(C)C(C[C@@H]3O)[C@](C)(C(=O)O)CC[C@@H]1O (some centres not stated)", 5.70],
  ["c1ccc2c(-c3ccc4nncn4c3)cncc2c1", 5.85],
  ["Cc1cc(C)c(O)c(CN(C)Cc2cc(Cl)cc(Cl)c2O)c1", 5.36],
  ["CCCCCCc1cc2cc(S(=O)(=O)c3ccc(F)cc3)c(=O)oc2cc1O", 5.35],
  ["C=C1C(=O)C23C(O)C1CCC2C12COC3(O)C(O)C1C(C)(C)CCC2O (configuration not stated)", 5.43],
  ["COc1ccc(COC(=O)C2=C(C)NC(=O)NC2c2ccc(F)cc2)cc1 (configuration not stated)", 5.05],
  ["COc1cccc2c(SCC(=O)N/N=C/c3ccccc3)cc(C)nc12", 5.16],
  ["COc1ccc(OC)c(Nc2ncnc3ccc(Br)cc23)c1", 5.34],
  ["COc1ccc(C2=Nn3c(nnc3-c3ccccc3OC)SC2)cc1OC1CCOC1 (configuration not stated)", 5.31],
  ["CC(C)(C)C(=O)/C(=C/c1ccncc1)n1cncn1", 5.65],
  ["CC1=C(/C=C/C(C)=C/C=C/C(C)=C\\C(=O)O)C(C)(C)CCC1", 6.19],
  ["O=C(Nc1nnc(S(=O)(=O)N2CCCCCC2)s1)c1cccc(Br)c1", 5.57],
  ["CC(C)c1nc(Cl)c(C#N)c2c1CCCC2", 5.45],
  ["CCc1ccc(Nc2n[n+](-c3ccccc3)c(-c3c(Cl)cccc3Cl)s2)cc1", 5.26]
]}
